Test: Binding affinity to C-terminal his-tagged Mycobacterium tuberculosis Cytochrome bd oxidase assessed as dissociation constant incubated for 5 to 10 mins by MST assay
endpoint: Kd (µM)
Unit µM implied. Number only.

| chemical string | unit of measure | Kd |
| --- | --- | --- |
| Cc1c(Cc2ccccc2OC(F)(F)F)c(=O)c2ccccc2n1O | µM | 165 |
| Cc1c(Cc2ccc(OC(F)(F)F)cc2)c(=O)c2ccccc2n1O | µM | 4.17 |
| CC(C)(C)c1cc(C(C)(C)C)c(NC(=O)c2c[nH]c3ccccc3c2=O)cc1O | µM | 40 |

In the following, a different compound is considered.
Inquiry: Report Kd, nothing else, for this compound: CN(C(=O)c1c(O)c2ccccc2n(C)c1=O)c1ccccc1
Reply text: 13
